target: SARS-CoV-2 spike protein on live SARS-CoV-2 virus (SARS-CoV-2, UniProt P0DTC2 14-1273)
experimental protocol: cell-based or functional assay
test readout: IC50, live SARS-CoV-2 미세중화분석, Vero 세포 (nM)
Enter your answer as a number in nM; do not include the unit.

Sample records with IC50, live SARS-CoV-2 미세중화분석, Vero 세포:
{"binder": "SA4043 (antibody, V domains shown) VH: QVQLQESGGGLVQPGGSLRLSCAASVITVSSNYMSWVRQAPGKGLEWVSVIYPGGSTYYADSVKGRFTISRDKSKNTLYLQMNSLRAEDTAVYYCARDLDIVGGMDVWGQGTTVTVSS VL: DIQMTQSPSTLSASVGDRVTITCRASQSISRWLAWYQQKPGQAPKLLIYAASTLQSGVPSRFSGSGSGTEFTLTISSLQPDDFATYYCQQYDSYPRTFGQGTKVDIK", "IC50, live SARS-CoV-2 미세중화분석, Vero 세포 (nM)": 12.5}
{"binder": "SA4040 (antibody, V domains shown) VH: EVQLVQSGAEVKKPGASVKVSCKASGYTFTGYYMHWARQAPGQGLEWMGWINPNSGGTNYAQKFQGRVTMTRDTSITTAYMELSRLTSDDTAVYYCARDQAFSMVRGVTDYWGQGTLVTVSS VL: QSALTQPPSASGSPGQSVIISCTGSSSDVGGYNYVAWYQQYPGAAPKLIISEVTKRPSGVPDRFSGSKSGNTASLTISGLQAEDEANYYCSSYAGDNTWIFGGGTKLTVL", "IC50, live SARS-CoV-2 미세중화분석, Vero 세포 (nM)": 8.14}

Note: attention shifts to another entry.
input: State its IC50, live SARS-CoV-2 미세중화분석, Vero 세포: SA3779 (antibody, V domains shown) VH: QVQLVESGGGVVQPGRSLRLSCAASGFTFSSYAMHWVRQAPGKGLEWVAVISYDGSNKYYADSAKGRFTISRDNSKNTLYLQMNSLRAEDTAVYYCARRGHYYDSSGYLYWGHGTLITVSS VL: DIQMTQSPSSLSASVGDRVTITCRASQRIATYLHWYQQKPGRAPKLLIYAASSLQTGVPSRFSGSGSGTDFTLTINSLQPEDFATYYCQQSYAIPYTFGQGTKLEIK
output: 56.8
